Test system: RARg homodimer (NR concentration 270 nM)
Experiment: PBM binding z-score (relative to random genomic background probes); higher = stronger binding; sequences stand for … in GC…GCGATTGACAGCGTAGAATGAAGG
I'd appreciate it if you could supply PBM binding z-score values for the items below.
Numbers only.

For orientation, consider the following solved cases.
* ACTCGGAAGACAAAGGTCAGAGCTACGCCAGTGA | 4.21
* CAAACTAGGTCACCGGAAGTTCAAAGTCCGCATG | 6.24
* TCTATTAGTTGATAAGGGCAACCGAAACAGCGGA | 0.844

For each of the sequences below, note its PBM binding z-score.
1. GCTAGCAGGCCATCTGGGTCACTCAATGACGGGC
2. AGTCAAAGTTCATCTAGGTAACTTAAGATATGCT

Result:
1. 1.84
2. 5.5
